- Assay Comment: Lethal dose was determined after intraperitoneal administration in mice
- Type: toxicity, organism-based
- Protocol Conditions: mouse, in vivo, ip
Metric Name: LD50 (mg/kg)
Dear colleague, please return just the value in mg/kg, with no unit written.

Hello, please tell me recorded LD50 for this one: CN(C(=O)CN)c1ccc(Cl)cc1C(=O)c1c(Cl)cccc1Cl.Cl
245

====

- Target Of Assay: GABA-A receptor; anion channel
- Assay Comment: In vitro displacement of [3H]-diazepam from GABA-A Benzodiazepine receptor
Metric Name: pIC50
// scale note: pIC50 = -log10(conc_M); give the bare number

Let me know recorded pIC50 for CN(C(=O)CN)c1ccc(Cl)cc1C(=O)c1c(Cl)cccc1Cl.Cl , thanks.
6.03

Fill in reported pIC50 for this entry: NCC(=O)Nc1ccc(Cl)cc1C(=O)c1ccccc1Cl
8.32

Hello, please tell me recorded pIC50 for this one: O=C1CN=C(c2ccccc2Cl)c2cc(Cl)ccc2N1
8.55

Note down pIC50 recorded for O=C1CN=C(c2c(Cl)cccc2Cl)c2cc(Cl)ccc2N1
8.26

Provide pIC50 value for the following compound: CN1C(=O)CN=C(c2c(Cl)cccc2Cl)c2cc(Cl)ccc21
8.15

Consider the compound Cl.NCC(=O)Nc1ccc(Cl)cc1C(=O)c1c(Cl)cccc1Cl and give its recorded pIC50.
6.00

Indicate its recorded pIC50; the compound in question is CN(C(=O)CN)c1ccc(Cl)cc1C(=O)c1ccccc1
8.00

====

Task for the reader: assign each of the following molecules its reported ED50.
- Tested on: Mus musculus
- Assay Comment: Dose that prevents convulsions in 50% of the CF1 male mice tested after administration of 70 mg/kg of metrazole by intravenous route
- Format: functional
Give the value, in units of mg/kg, as a plain number.

Determine from records and report ED50 for NCC(=O)Nc1ccc(Cl)cc1C(=O)c1ccccc1Cl
3.8

Determine its reported ED50: CN1C(=O)CN=C(c2c(Cl)cccc2Cl)c2cc(Cl)ccc21
18.9

Return ED50 for the following molecule: O=C1CN=C(c2ccccc2Cl)c2cc(Cl)ccc2N1
0.26

Indicate the recorded ED50 value for this molecule: O=C1CN=C(c2c(Cl)cccc2Cl)c2cc(Cl)ccc2N1
6

Please give the documented ED50 of CN1C(=O)CN=C(c2ccccc2)c2cc(Cl)ccc21
1.2

Fill in reported ED50 for this entry: CN(C(=O)CN)c1ccc(Cl)cc1C(=O)c1ccccc1
1
